Assay: Antibacterial activity against Eberthella typhosa by twofold serial dilution technique
Format: functional
assay.readout: MIC (µg/mL)

[[record]]
compound_structure = "Nc1ccc(S(=O)(=O)NCc2cn(Cc3ccc(Cl)cc3)nn2)cc1"
comparison_symbol = "="
reading = 512

[[record]]
compound_structure = "Nc1ccc(S(=O)(=O)NCc2cn(Cc3ccc(F)cc3F)nn2)cc1"
comparison_symbol = "="
reading = 128

[[record]]
compound_structure = "CCCCCn1cc(CNS(=O)(=O)c2ccc(N)cc2)nn1"
comparison_symbol = "="
reading = 512

[[record]]
compound_structure = "Nc1ccc(S(=O)(=O)NCc2cn(Cc3ccccc3Cl)nn2)cc1"
comparison_symbol = ">"
reading = 512

[[record]]
compound_structure = "CCCCCCCCCCCCn1cc(CNS(=O)(=O)c2ccc(N)cc2)nn1"
comparison_symbol = "="
reading = 64

[[record]]
compound_structure = "Nc1ccc(S(=O)(=O)NCc2cn(Cc3cccc(Cl)c3)nn2)cc1"
comparison_symbol = "="
reading = 256

[[record]]
compound_structure = "Cc1cccc(Cn2cc(CNS(=O)(=O)c3ccc(N)cc3)nn2)c1"
comparison_symbol = "="
reading = 512

[[record]]
compound_structure = "CCCCCCCCCCn1cc(CNS(=O)(=O)c2ccc(N)cc2)nn1"
comparison_symbol = "="
reading = 128

[[record]]
compound_structure = "Nc1ccc(S(=O)(=O)NCc2cn(Cc3ccc(F)cc3)nn2)cc1"
comparison_symbol = "="
reading = 256

[[record]]
compound_structure = "O=C(N[C@H](CO)[C@H](O)c1ccc([N+](=O)[O-])cc1)C(Cl)Cl"
comparison_symbol = "="
reading = 2

[[record]]
compound_structure = "Nc1ccc(S(=O)(=O)NCc2cn(Cc3ccc(Cl)cc3Cl)nn2)cc1"
comparison_symbol = "="
reading = 128

[[record]]
compound_structure = "C#CCNS(=O)(=O)c1ccc(N)cc1"
comparison_symbol = ">"
reading = 512

[[record]]
compound_structure = "CCCCCCCCCCCCCCCCn1cc(CNS(=O)(=O)c2ccc(N)cc2)nn1"
comparison_symbol = "="
reading = 128

[[record]]
compound_structure = "Nc1ccc(S(=O)(=O)NCc2cn(Cc3ccccc3)nn2)cc1"
comparison_symbol = "="
reading = 512

[[record]]
compound_structure = "CCCCCCCCn1cc(CNS(=O)(=O)c2ccc(N)cc2)nn1"
comparison_symbol = "="
reading = 256

[[record]]
compound_structure = "Nc1ccc(S(=O)(=O)NCc2cn(Cc3ccc([N+](=O)[O-])cc3)nn2)cc1"
comparison_symbol = ">"
reading = 512

[[record]]
compound_structure = "CCCCCCn1cc(CNS(=O)(=O)c2ccc(N)cc2)nn1"
comparison_symbol = ">"
reading = 512

